system: Macrophage migration inhibitory factor (Homo sapiens)
measurement description: Inhibition of C-terminal His-tagged recombinant human MIF tautomerase activity expressed in Escherichia coli BL21 using 4-hydroxyphenyl pyruvic acid as substrate preincubated for 15 mins followed by substrate addition and measured for 10 mins in presence of 0.5 mM EDTA by UV absorbance analysis
metric: log10 IC50 (log10 of the value in µM)
Give log10 of IC50, with IC50 taken in µM.

Recorded log10 IC50, per entry:
{"columns": ["compound structure string", "reported"],
 "data": [
  ["O=C(NCc1cn(-c2ccc(O)cc2)nn1)c1ccc(F)cc1", 1.72],
  ["CCCCCc1cn(-c2ccc(O)cc2)nn1", 1.00],
  ["O=C(NCc1cn(-c2ccc(O)cc2)nn1)c1ccc(Br)o1", 1.58],
  ["O=C(NCc1cn(-c2ccc(O)cc2)nn1)c1cccs1", 1.61]
]}

Batch request: log10 IC50 per item, same order as input.
1. O=C(NCc1cn(-c2ccc(O)cc2)nn1)c1cc2ccccc2[nH]1
2. Oc1ccc(-n2cc(C3CCCCC3)nn2)cc1
3. O=C(CCc1cn(-c2ccc(O)cc2)nn1)Nc1ccccc1

Resp:
1.00
1.41
1.67

Batch request: log10 IC50 per item, same order as input.
1. Oc1ccc(-n2cc(-c3ccccn3)nn2)cc1
2. C#CCCCCc1cn(-c2ccc(O)cc2)nn1
3. Cc1ccc(C(=O)NCc2cn(-c3ccc(O)cc3)nn2)s1
4. O=C(NCc1cn(-c2ccc(O)c(F)c2)nn1)c1cc2ccccc2[nH]1

Resp:
0.86
0.98
1.45
0.68

Req: Given O=C(NCc1cn(-c2ccc(O)cc2)nn1)c1ccccc1 , report its log10 IC50 on Macrophage migration inhibitory factor (Homo sapiens).
Resp: 1.52

====

system: Macrophage migration inhibitory factor (Homo sapiens)
measurement description: Inhibition of recombinant human MIF tautomerase activity expressed in Escherichia coli using 4-hydroxyphenyl pyruvic acid as substrate preincubated for 30 mins followed by substrate addition and measured for 175 secs
metric: Ki (µM)
One number for each entry, in µM.

Req: Respond only with Ki recorded for Oc1ccc(-n2cc(-c3ccccn3)nn2)cc1
Resp: 8.8

====

system: Macrophage migration inhibitory factor (Homo sapiens, UniProt P14174)
Sequence (P14174 whole entry): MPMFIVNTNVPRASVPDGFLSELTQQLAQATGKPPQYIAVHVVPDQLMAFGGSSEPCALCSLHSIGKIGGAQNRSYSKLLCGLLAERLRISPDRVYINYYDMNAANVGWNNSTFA
measurement description: Inhibition of C-terminal His-tagged recombinant human MIF tautomerase activity expressed in Escherichia coli BL21 using 4-hydroxyphenyl pyruvic acid as substrate preincubated for 15 mins followed by substrate addition and measured for 10 mins in presence of 0.5 mM EDTA by UV absorbance analysis
metric: pIC50
Answers are plain numbers, as −log10 of the molar value.

Recorded pIC50, per entry:
{"columns": ["compound structure string", "pIC50"],
 "data": [
  ["COC(=O)CCCc1cn(-c2ccc(O)cc2)nn1", 4.48],
  ["O=C(Cc1cc2ccccc2[nH]1)NCc1cn(-c2ccc(O)cc2)nn1", 4.21]
]}

// moving on: another record for pIC50
Req: Respond only with pIC50 recorded for O=C(NCc1cn(-c2ccc(O)cc2)nn1)c1ccc[nH]1
Resp: 4.37

====

system: UniProtKB P14174
measurement description: Inhibition of C-terminal His-tagged recombinant human MIF tautomerase activity expressed in Escherichia coli BL21 using 4-hydroxyphenyl pyruvic acid as substrate preincubated for 15 mins followed by substrate addition and measured for 10 mins in absence of EDTA by UV absorbance based Cheng-Prusoff equation analysis
metric: pKi
One number for each entry, as −log10 of the molar value.

Req: Respond only with pKi recorded for Oc1ccc(-n2cc(-c3ccccn3)nn2)cc1
Resp: 5.54

====

Please go through the items and note down their solubility thermodynamic.
measurement description: Solubility of compound in pH 7.4 PBS buffer by shake-flask method
Format: physicochemical
Numbers only, in µM.

{"columns": ["compound structure string", "solubility thermodynamic [µM]"],
 "data": [
  ["O=C(NCc1cn(-c2ccc(O)c(F)c2)nn1)c1cc2cc(Cl)ccc2[nH]1", 28]
]}

Req: Respond only with solubility thermodynamic recorded for O=C(NCc1cn(-c2ccc(O)c(F)c2)nn1)c1cc2ccccc2[nH]1
Resp: 41.4

====

system: Macrophage migration inhibitory factor (Homo sapiens, UniProt P14174)
measurement description: Inhibition of C-terminal His-tagged recombinant human MIF tautomerase activity expressed in Escherichia coli BL21 using 4-hydroxyphenyl pyruvic acid as substrate preincubated for 15 mins followed by substrate addition and measured for 10 mins in presence of 0.5 mM EDTA by UV absorbance based Cheng-Prusoff equation analysis
Please go through the items and note down their Ki.
Numbers only, in µM.

Recorded Ki, per entry:
{"columns": ["compound structure string", "system", "Ki [µM]"],
 "data": [
  ["O=C(NCc1cn(-c2ccc(O)cc2)nn1)c1ccccc1", "Macrophage migration inhibitory factor (Homo sapiens, UniProt P14174)", 23],
  ["Oc1ccc(-n2cc(C3CCCCC3)nn2)cc1", "Macrophage migration inhibitory factor (Homo sapiens, UniProt P14174)", 17]
]}

Batch request: Ki per item, same order as input.
1. COC(=O)CCCc1cn(-c2ccc(O)cc2)nn1
2. O=C(Cc1cc2ccccc2[nH]1)NCc1cn(-c2ccc(O)cc2)nn1
3. O=C(NCc1cn(-c2ccc(O)cc2)nn1)c1cccs1
4. CCCCCc1cn(-c2ccc(O)cc2)nn1
5. O=C(NCc1cn(-c2ccc(O)c(F)c2)nn1)c1cc2ccccc2[nH]1
6. Cc1ccc(C(=O)NCc2cn(-c3ccc(O)cc3)nn2)s1
7. O=C(NCc1cn(-c2ccc(O)c(F)c2)nn1)c1cc2cc(Cl)ccc2[nH]1
8. O=C(NCc1cn(-c2ccc(O)cc2)nn1)c1ccc(F)cc1

Resp:
23
43
28
6.9
3.3
19
0.96
36

Batch request: Ki per item, same order as input.
1. O=C(NCc1cn(-c2ccc(O)cc2)nn1)c1ccc[nH]1
2. O=C(NCc1cn(-c2ccc(O)cc2)nn1)c1ccc(Br)o1

Resp:
30
26

Batch request: Ki per item, same order as input.
1. C#CCCCCc1cn(-c2ccc(O)cc2)nn1
2. O=C(CCc1cn(-c2ccc(O)cc2)nn1)Nc1ccccc1
3. Oc1ccc(-n2cc(-c3ccccn3)nn2)cc1

Resp:
[6.5, 32, 5]

Req: Respond only with Ki recorded for O=C(NCc1cn(-c2ccc(O)cc2)nn1)c1cc2ccccc2[nH]1
Resp: 6.9
